# Procedure text: xn = mol fraction of the nth substance listed
# Condition label: 298.15 K; 101 kPa; x1 = 0.0255
Measured metric: electrical conductivity (S/m)

                                   compound  result_value
0  CCc1n(S(=O)(=O)O)cc[n+]1S(=O)(=O)O.O=C([O-])C(F)(F)F + CO          3.08
1  Cc1n(S(=O)(=O)O)cc[n+]1S(=O)(=O)O.O=C([O-])C(F)(F)F + CC#N          1.26
2  CCc1n(S(=O)(=O)O)cc[n+]1S(=O)(=O)O.O=C([O-])C(F)(F)F + CC#N          1.11
3  O=C([O-])C(F)(F)F.O=S(=O)(O)n1cc[n+](S(=O)(=O)O)c1 + CC#N          1.54

Provenance of the data: the CheMixHub ionic liquid set
